# Measured target: recombinant human ALK5 (TGF-βR1) protein (Homo sapiens, UniProt P36897)
# Construct: purchased Life Technologies PR9075A
# Method description: Biochemical ALK5 (TGF-βR1) assay to measure pKi (LANCE Ultra ULight kinase assay)
# Assay conditions: apparent pKi from pIC50 by Cheng-Prusoff, read-out: ALK5 pKi (converted)
Measurement type: Ki

Query: Output Ki of Cc1cccc(-c2n[nH]cc2-c2ccc3nccc(C(N)=O)c3n2)n1 [Compound 806]
Response: 0.398 to 3.16 nM

Query: Output Ki of Cc1cccc(-c2[nH]cnc2-c2ccc3ncc(-c4ccnc(C(=O)OCCN5CCNCC5)c4)cc3c2)n1 [Compound 1099]
Response: 0.0398 to 0.316 nM

Query: Output Ki of Cc1cccc(-c2[nH]cnc2-c2ccc3ncc(-c4cccc(C(=O)OCC5CNC5)c4)cc3c2)n1 [Compound 231]
Response: 0.0398 to 0.316 nM

Query: Output Ki of Cc1cccc(-c2[nH]cnc2-c2ccc3ncc(C4=CC[C@H](N)CC4)cc3c2)n1 [Compound 81]
Response: < 0.0316 nM

Query: Output Ki of Cc1cccc(-c2[nH]nnc2-c2ccc3ncc(-c4cnn(C5CCCNC5)c4)cc3n2)n1 (stereo not shown) [Compound 602]
Response: < 0.0316 nM

Query: Output Ki of Cc1cccc(-c2[nH]c(O)nc2-c2ccc3ncc(C4=CCC5(CCNCC5)CC4)cc3c2)n1 [Compound 1198]
Response: 0.0398 to 0.316 nM

Query: Output Ki of Cc1cccc(-c2[nH]cnc2-c2ccc3ncc(NCC4CNC4)cc3c2)n1 [Compound 11]
Response: 0.0398 to 0.316 nM

Query: Output Ki of Cc1cccc(-c2[nH]cnc2-c2ccc3ncc(-c4ccc(CN5C[C@@H](C)N[C@@H](C)C5)nc4)cc3c2)n1 [Compound 1045]
Response: 0.0398 to 0.316 nM

Query: Output Ki of Cc1cccc(-c2n[nH]cc2-c2ccc3ncc(N4C[C@@H](C)N(C)C[C@H]4C)cc3n2)n1 (racemic) [Compound 296]
Response: 0.0398 to 0.316 nM

Query: Output Ki of Cc1cccc(-c2[nH]cnc2-c2ccc3ncc(-c4nc(C(=O)O[C@@H]5CCN(C)C5)cs4)cc3c2)n1 [Compound 744]
Response: 0.0398 to 0.316 nM

Query: Output Ki of Cc1cccc(-c2[nH]cnc2-c2ccc3ncc(C4=CC(C)(C)NC(C)(C)C4)cc3c2)n1 [Compound 117]
Response: 0.398 to 3.16 nM

Query: Output Ki of CNCCn1cc(-c2cnc3ccc(-c4c[nH]nc4-c4cccc(C)n4)nc3c2OC)cn1 [Compound 127]
Response: < 0.0316 nM

Query: Output Ki of CCOC(=O)CCc1cnc2ccc(-c3c[nH]nc3-c3cccc(C)n3)nc2c1 [Compound 499]
Response: 0.0398 to 0.316 nM

Query: Output Ki of Cc1cccc(-c2[nH]cnc2-c2ccc3ncc(NC(=O)CC4CNC4)cc3c2)n1 [Compound 255]
Response: 0.0398 to 0.316 nM

Query: Output Ki of Cc1cccc(-c2nn3cc(Cl)ccc3c2-c2ccc3ncc(-c4cn[nH]c4)cc3n2)n1 [Compound 330]
Response: 0.0398 to 0.316 nM

Query: Output Ki of Cc1cccc(-c2[nH]cnc2-c2ccc3ncc(C(=O)O[C@@H]4CC[C@@H](N)C4)cc3c2)n1 (racemic) [Compound 766]
Response: 0.0398 to 0.316 nM

====

# Measured target: recombinant human ALK5 (TGF-βR1) protein (Homo sapiens, UniProt P36897)
# Construct: purchased Life Technologies PR9075A
# Sequence (P36897 34-503): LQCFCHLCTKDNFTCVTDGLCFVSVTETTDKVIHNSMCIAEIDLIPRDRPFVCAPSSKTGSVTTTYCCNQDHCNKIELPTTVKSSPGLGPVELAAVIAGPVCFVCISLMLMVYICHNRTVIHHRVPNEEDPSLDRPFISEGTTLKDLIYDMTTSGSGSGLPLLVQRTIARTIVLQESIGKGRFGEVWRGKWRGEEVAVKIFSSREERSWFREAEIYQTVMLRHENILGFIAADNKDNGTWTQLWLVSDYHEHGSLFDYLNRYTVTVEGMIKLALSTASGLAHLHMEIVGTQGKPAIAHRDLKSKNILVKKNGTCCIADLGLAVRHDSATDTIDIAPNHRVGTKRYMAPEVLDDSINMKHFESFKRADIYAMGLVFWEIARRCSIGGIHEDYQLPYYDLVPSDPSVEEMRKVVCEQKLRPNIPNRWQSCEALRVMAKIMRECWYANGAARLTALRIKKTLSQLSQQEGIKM
# Method description: Biochemical ALK5 (TGF-βR1) assay to measure pKi (LANCE Ultra ULight kinase assay)
# Assay conditions: apparent pKi from pIC50 by Cheng-Prusoff, read-out: ALK5 pKi (converted)
Consider the following compounds; for each one, report its Ki.

Query: Output Ki of Cc1cccc(-c2n[nH]cc2-c2ccc3ncc(NCC4CNCCN4)cc3n2)n1 (stereo not shown)
Response: 0.0398 to 0.316 nM

Query: Output Ki of Cc1cccc(-c2[nH]ncc2-c2ccc3ncc(C(=O)OC[C@H]4CCCCN4)cc3c2)n1 (racemic)
Response: 0.0398 to 0.316 nM

Query: Output Ki of Cc1cccc(-c2[nH]cnc2-c2ccc3ncc(NCCN4CCC5(CCNC5)C4)cc3c2)n1 (stereo not shown)
Response: 0.0398 to 0.316 nM

Query: Output Ki of `Cc1cccc(-c2[nH]cnc2-c2ccc3ncc(N4CCN[C@H](C(=O)O)C4)cc3c2)n1`
Response: 0.398 to 3.16 nM

====

# Measured target: recombinant human ALK5 (TGF-βR1) protein (Homo sapiens)
# Construct: purchased Life Technologies PR9075A
# Method description: Biochemical ALK5 (TGF-βR1) assay to measure pKi (LANCE Ultra ULight kinase assay)
# Assay conditions: apparent pKi from pIC50 by Cheng-Prusoff, read-out: ALK5 pKi (converted)
Consider the following molecules; for each one, report its Ki.

Query: Output Ki of Cc1cccc(-c2[nH]ncc2-c2ccc3nccc(C(=O)O[C@H]4CC[C@@H](N)CC4)c3c2)n1 [Compound 1199]
Response: 3.98 to 31.6 nM

Query: Output Ki of Cc1cccc(-c2n[nH]cc2-c2ccc3nccc(NC(=O)CCN4CCN(C(C)C)CC4)c3n2)n1 [Compound 843]
Response: 0.398 to 3.16 nM

Query: Output Ki of Cc1cccc(-c2nc[nH]c2-c2ccc3ncc(-c4cnn([C@H]5CCCC[C@@H]5N)c4)cc3c2)n1 [Compound 656]
Response: < 0.0316 nM

Query: Output Ki of CNCCn1cc(-c2cnc3ccc(-c4c(-c5cccc(C)n5)[nH]c5ncccc45)cc3c2)cn1 [Compound 306]
Response: < 0.0316 nM

====

# Measured target: recombinant human ALK5 (TGF-βR1) protein (Homo sapiens, UniProt P36897)
# Construct: purchased Life Technologies PR9075A
# Sequence (P36897 34-503): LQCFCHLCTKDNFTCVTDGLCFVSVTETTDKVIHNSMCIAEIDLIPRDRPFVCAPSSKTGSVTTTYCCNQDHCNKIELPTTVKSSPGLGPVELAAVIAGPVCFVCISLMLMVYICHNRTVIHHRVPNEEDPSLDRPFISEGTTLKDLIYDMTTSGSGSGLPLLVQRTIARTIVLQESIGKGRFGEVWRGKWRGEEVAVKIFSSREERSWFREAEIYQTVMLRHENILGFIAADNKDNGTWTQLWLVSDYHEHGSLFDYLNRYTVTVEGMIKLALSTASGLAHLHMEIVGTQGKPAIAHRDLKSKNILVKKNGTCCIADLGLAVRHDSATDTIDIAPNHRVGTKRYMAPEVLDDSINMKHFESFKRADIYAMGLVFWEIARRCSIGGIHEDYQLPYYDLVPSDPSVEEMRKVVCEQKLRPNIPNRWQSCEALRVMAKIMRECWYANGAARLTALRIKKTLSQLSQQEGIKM
# Method description: Biochemical ALK5 (TGF-βR1) assay to measure pKi (LANCE Ultra ULight kinase assay)
# Assay conditions: apparent pKi from pIC50 by Cheng-Prusoff, read-out: ALK5 pKi (converted)
Consider the following compounds; for each one, report its Ki.

Query: Output Ki of `Cc1cccc(-c2nc3sccn3c2-c2ccc3ncc(Br)cc3n2)n1`
Response: 0.398 to 3.16 nM

Query: Output Ki of `Cc1cccc(-c2[nH]cnc2-c2ccc3ncc(-c4ncc(C(=O)OC5CCNCC5)cn4)cc3c2)n1`
Response: 0.0398 to 0.316 nM

Query: Output Ki of `Cc1cccc(-c2n[nH]cc2-c2ccc3ncc(-c4cn(C)nn4)cc3n2)n1`
Response: < 0.0316 nM

Query: Output Ki of `Cc1cccc(-c2[nH]cnc2-c2ccc3ncc(-c4ccc(C(=O)OCCN5CCNCC5)cn4)cc3c2)n1`
Response: 0.0398 to 0.316 nM

Query: Output Ki of `Cc1nc(-c2n[nH]cc2-c2ccc3ncc(N4CCNCC4)cc3n2)ccc1F`
Response: 0.0398 to 0.316 nM

Query: Output Ki of `Cc1cccc(-c2[nH]cnc2-c2ccc3ncc(N4CC(N)C4)cc3c2)n1`
Response: 0.0398 to 0.316 nM

Query: Output Ki of `Cc1cccc(-c2[nH]cnc2-c2ccc3ncc(C(=O)OCC45CCC(CC4)N5)cc3c2)n1`
Response: 0.398 to 3.16 nM

Query: Output Ki of `Cc1cccc(-c2[nH]cnc2-c2ccc3ncc(Nc4ccc(N5CCN(Cc6ccccc6)CC5)cn4)cc3c2)n1`
Response: 0.398 to 3.16 nM
